Target: UniProt P11229
Sequence (P11229 whole entry): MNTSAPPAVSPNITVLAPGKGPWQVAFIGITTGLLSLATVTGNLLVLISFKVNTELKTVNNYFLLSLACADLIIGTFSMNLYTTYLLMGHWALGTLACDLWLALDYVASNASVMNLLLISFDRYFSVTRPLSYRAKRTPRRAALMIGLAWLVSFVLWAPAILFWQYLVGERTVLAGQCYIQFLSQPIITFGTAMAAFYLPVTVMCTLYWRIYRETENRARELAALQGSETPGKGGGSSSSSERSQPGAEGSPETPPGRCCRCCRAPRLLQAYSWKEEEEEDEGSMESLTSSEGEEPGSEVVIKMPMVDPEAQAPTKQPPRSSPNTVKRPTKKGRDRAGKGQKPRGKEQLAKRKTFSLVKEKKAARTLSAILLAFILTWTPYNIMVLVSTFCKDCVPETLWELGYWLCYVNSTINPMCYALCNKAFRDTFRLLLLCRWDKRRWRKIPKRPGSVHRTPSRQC
Measure: Ki (µM)
Your answer should be a plain number; it is taken to be in µM.

Answer with reported Ki of CNC(=O)Oc1cccc2c1CCC1C2CCN1CCC1CCCCC1 (stereo unspecified)
0.657

* * *

Target: Butyrylcholinesterase (Rattus norvegicus)
Sequence (Q9JKC1 whole entry): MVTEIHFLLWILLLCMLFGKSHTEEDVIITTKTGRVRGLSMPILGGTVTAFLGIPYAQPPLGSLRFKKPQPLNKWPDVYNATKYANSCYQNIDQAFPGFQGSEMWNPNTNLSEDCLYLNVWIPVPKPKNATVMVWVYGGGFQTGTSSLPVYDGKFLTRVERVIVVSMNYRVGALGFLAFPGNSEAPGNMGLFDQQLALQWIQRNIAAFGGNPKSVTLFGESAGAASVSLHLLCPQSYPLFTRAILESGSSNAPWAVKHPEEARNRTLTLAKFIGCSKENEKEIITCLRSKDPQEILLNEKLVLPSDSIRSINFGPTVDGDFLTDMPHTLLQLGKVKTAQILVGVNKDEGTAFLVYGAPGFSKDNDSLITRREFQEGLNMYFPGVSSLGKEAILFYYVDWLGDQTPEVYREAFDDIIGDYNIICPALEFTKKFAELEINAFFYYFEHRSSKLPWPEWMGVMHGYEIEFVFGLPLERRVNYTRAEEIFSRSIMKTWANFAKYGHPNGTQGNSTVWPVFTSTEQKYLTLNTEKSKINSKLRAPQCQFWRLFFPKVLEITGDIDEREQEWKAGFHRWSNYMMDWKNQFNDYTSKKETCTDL
Test: Inhibition of Sprague-Dawley rat serum BChE using butyrylthiocholine iodide as substrate incubated for 15 mins by Ellman's method
Measure: pIC50
// scale note: pIC50 = -log10(conc_M); give the bare number

Answer with reported pIC50 of O=C(Oc1ccc(/C=C/c2cc(OC(=O)N3CCN(Cc4ccccc4)CC3)cc(OC(=O)N3CCN(Cc4ccccc4)CC3)c2)cc1)N1CCN(Cc2ccccc2)CC1
5.95
